Tested on: UO-31 renal
experiment summary: NCI tumour cell line growth inhibition, 48 h
Listed below: GI50 values for each entry.

Reference set, count: 5
{"compound": "CC[C@]12C=CCN3CC[C@]4(C(=C(C(=O)OC)C1)Nc1cc(O)ccc14)[C@@H]32", "val": "12.9 µM"}
{"compound": "COc1cc[nH]c1/C=C1\\C(=O)Nc2ccc(F)c(C#CC3(O)CCOCC3)c21", "val": "0.512 µM"}
{"compound": "Cc1nn(-c2ccccc2)c2c1C1C(=C(c3ccc(Cl)cc3)N2)C(=O)Nc2ccccc21 (stereo not drawn)", "val": "2.86 µM"}
{"compound": "CCOC(=O)c1[nH]c2c(c1C)-c1[nH]c(=O)c(S(=O)(=O)c3ccccc3)cc1SC2", "val": "> 100 µM"}
{"compound": "C[C@@H](NC(=O)Cc1cc(F)cc(F)c1)C(=O)N[C@@]1(C)N=C(c2ccccc2)c2ccccc2N(C)C1=O", "val": "30.5 µM"}

Query: Need GI50 of "Cc1ccc([P+](Cc2ccc([N+](=O)[O-])cc2)(c2ccc(C)cc2)c2ccc(C)cc2)cc1" , thanks.
Reply: 13.3 µM

Query: Need GI50 of COc1ccccc1C1C(C#N)=C(N)OC2=C1C(=O)CCC2 (stereo not drawn) , thanks.
Reply: > 100 µM

Query: Need GI50 of "O=C(N[C@@H]1CCCc2ccccc21)[C@H](CCC(=O)N1CCN(C2CCCCC2)CC1)N1C(=O)[C@@H](N2C(=O)OC[C@@H]2c2ccccc2)[C@H]1/C=C/c1ccccc1" , thanks.
Reply: 2.01 µM
